molecular target: human Y4 receptor (human, UniProt P50391 1-375); assay: 125I-PP displacement
Sequence (P50391 whole entry): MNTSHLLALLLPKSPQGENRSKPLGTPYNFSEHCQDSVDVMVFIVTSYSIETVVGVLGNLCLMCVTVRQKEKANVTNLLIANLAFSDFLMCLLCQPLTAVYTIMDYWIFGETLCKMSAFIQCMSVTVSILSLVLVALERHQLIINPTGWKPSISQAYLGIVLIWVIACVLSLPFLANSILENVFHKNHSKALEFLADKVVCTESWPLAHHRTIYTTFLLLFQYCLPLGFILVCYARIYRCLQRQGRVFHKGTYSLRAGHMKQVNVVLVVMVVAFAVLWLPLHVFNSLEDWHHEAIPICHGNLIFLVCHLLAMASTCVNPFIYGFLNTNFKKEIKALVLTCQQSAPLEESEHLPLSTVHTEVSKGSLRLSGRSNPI
parameter: pIC50
pIC50 here: minus log base 10 of the concentration, concentration in moles per litre.

Problem: Requested field: pIC50. Item: PAPLEPHYPGDNATPEQMAKYYSELRRYINKLTRPRY [4057763]
Solution: 9.76

Problem: What value of pIC50 has been reported for the following binder? PLEPHYPGDDATPQQMARYAAELRRYINKLTRPRY [4057898]
Solution: 10.20

Problem: What value of pIC50 has been reported for the following binder? PAPLEPHYPGDDATPQQLAHYYSELRRYINKLTRPRY [4057789]
Solution: 9.79

Problem: Need pIC50, item HAPLEPVYPGDNATPEQMAKYAADLRRYINKLTRPRY [4057879]
Solution: 9.87

Problem: Entry PAPLEPHYPGDNATPEQMAKYAADLRRYINKLTRPRF [4057747] : reported pIC50 = ?
Solution: 10.18

Problem: Tell me the measured pIC50 of YAPLEPEYPGDDATPQQMARYAAELRRYINKLTRPRY [4058053] , please.
Solution: 10.38

Problem: // query pIC50 value for entry HAPLEPHYPGDNATPEQMAKYAADLRRYINKLTRPRY [4057891]
Solution: 9.84

Problem: Look up pIC50: HAPLEPHYPGDNATPEQMARYAAELRRYINKLTRPRY [4057902]
Solution: 10.19
